- Test system: MS2 coat protein
- test description: apparent KD of MS2 coat protein; designed switch direction (-1 OFF switch, 1 ON switch): -1; higher = weaker reporter binding
- experimental parameters: Eterna round: R95; input ligand: FMN 200 uM
# label = bin(measured apparent KD of MS2 coat protein), where bins are class A (below 30 nM), class B (30 nM to below 50 nM), class C (50 nM or more)

sequence input | target or test system | cat
AGGUAACAUGAGGAUCACCCAUGUCAGGAUAUCAGUAAGAUGAGGAUAGAAUAGAGUAUGAGAAGGGACUAUAU [Excluse me! 22 - Jieux - Exclusion 1] (puzzle: Exclusion 1) | MS2 coat protein | class B
GUAUGUAACUAGGAUAUCAGCAUACUUCAAUGUUGAGAAGGAGUUACAUGAGGAUCACCCAUGUAUCCAACAUG [Exclusion 6 - 3:b] (puzzle: Exclusion 6) | MS2 coat protein | class B
AAAAACAGAGGAUAUGCACGCCGACCCGGGCGGGAAGUCGGACAUGAGGAUCACCCAUGUAGAAGGCUGAAAAA [Exclss2-VI] (puzzle: Exclusion 2) | MS2 coat protein | class A
GGUUGCGCAGGAUAUACAUGAGGAUCACCCAUGUGAGAGAAAUAAGUGAGGAAGAAAAGUAGAAGGGCGUGACA [Mat - Exclusion 3 - Mod of Salish D75] (puzzle: Exclusion 3) | MS2 coat protein | class C
UUUAAUUUUUUUUUUUUACAAGCUUUUUGCUCGUCUUAUACAUGAGGAUCACCCAUGUGGGUGAGGGAUAAAUUAUC [JMF 42] (puzzle: Sensor v3, turn-off variant 2) | MS2 coat protein | class A
CUGAGCAGACGGAGAUCCAACAUGAGGAUCACCCAUGUCUCAAAAGCUCUUUGCUCGUCUUAUCCUCCUCUGUUCUC [Leriedor] (puzzle: Sensor v3, turn-off variant 1) | MS2 coat protein | class B
UAGUAGCAAGGAUAUACAGAGGAGAGGAAAGCAAGAGGAGGACAUGAGGAUCACCCAUGUAGAAGGUGCAGAGA [JR_Exclu2_Sub020] (puzzle: Exclusion 2) | MS2 coat protein | class C
CCCUCACAUGAGGAUCACCCAUGUCAGGAUAUUCAGGUCACGCAAAAGCGGUUCCAAAGGAGAAGGGACAUCAA [Cequusso] (puzzle: Exclusion 1) | MS2 coat protein | class B
UUGGUUAUCUAUGGAAGUAACAUGAGGAUCACCCAUGUAUGUCUUGUUUUUUGUUCGUCAUAGGCCUUUUGUUUGGA [JR_SV3TOV1_Sub023] (puzzle: Sensor v3, turn-off variant 1) | MS2 coat protein | class A
GCAGUGCGAGGAUAUACAUGAGGAUCACCCAUGUGAGAAUAAUAAGUGAGGAAGAAAAGUAGAAGGCGCGUUGG [Mat - Exclusion 3 - Mod of Salish D67] (puzzle: Exclusion 3) | MS2 coat protein | class C
AGUAACUAUCACGAAAGUGAUAGUUACAAACAGGUGAAAACAUGAGGAUCACCCAUGUCCUCAUUUGCUCGUCUUAU [Sensor 3 - 8] (puzzle: Sensor v3, turn-off variant 2) | MS2 coat protein | class C
AGAAAUGCCCAUGACCGCAAGCUUUUUGCUUGUCUUACCACAUGAGGAUCACCCAUGUGACAUGGGCUCCUGAUAAU [Onlaleti] (puzzle: Sensor v3, turn-off variant 2) | MS2 coat protein | class A
GUGUAGUCAGGAUAUACAUAGGAAGAGAAGAUAAGAUAAGCACAUGAGGAUCACCCAUGUAGAAGGGACAGUGU [Excluse me!! 2 - Jieux - Exclusion 2] (puzzle: Exclusion 2) | MS2 coat protein | class C
CGUACUAACACGAAAGUGUUAGUACAAUAAGCUUGUGAAACAUGAGGAUCACCCAUGUCCUCAUAAGCUCGUCUUAG [salish99_TOv2_r3_008] (puzzle: Sensor v3, turn-off variant 2) | MS2 coat protein | class A
CUGGUCCGAGGAUAUAUUAAGUGAAACAUGAGGAUCACCCAUGUUAUUUAAUGGAAAUAAAUAGAAGGCGGACUAG [Mat - Exclusion 5 - JL mod - D55] (puzzle: Exclusion 5) | MS2 coat protein | class B
